# assayComment: folding stability dG unfold (combined trypsin and chymotrypsin); higher = more stable
readoutKind: folding stability dG unfold
Give the number first and the unit second.

Write down folding stability dG unfold measured for item SAGGSPEVKVLLFYDPATGERVVVVVTYDPATGEKKVLVFVESRPELVELVKKLLEDLGYEVEVVPSAGGSA [r2_30_TrMRF] 3.63 kcal/mol

Provide only the value of recorded folding stability dG unfold for SAGGSAGGSKKKITRIVITDFDPETGKVTVRIRNENGEEETIEVETLEELKELFPDVEVEVIPSAGGSAGGS [r12_403_TrROS_Hall] 2.24 kcal/mol

Note down folding stability dG unfold recorded for SAGRIEVYQDPNMLRVIEIPLPNGREIVIYRPPGYYHIEIENPNNNKQIPIMIPMEPGDIKKIIKEFINSAG [r5_820_TrROS] 1.33 kcal/mol

Look up and report measured folding stability dG unfold for this entry: SAGGSAGGSAGGSILLITTHPKDAEKAAKEIEKILAELDIPPDAKIEVYVVPKEYLPDESAGGSAGGSAGGS [r4_472_TrMRF] 0.329 kcal/mol

Respond only with folding stability dG unfold recorded for SAGEEVYLITVRIIDPETNEVKEITKLIKNKTEDEILEELRKLLEELGIELPEGAKVEITITKIKPPPESAG [r5_230_TrROS_Hall] 4.26 kcal/mol

Return reported folding stability dG unfold. Input sequence: SAGGSAMESFLGAAKEVLSQMEPGEIVLLPLERPDDKPLLVLLDPTTRRLVVFYPDGGYEEFDFPESAGGSA [r15_977_TrMRF] 2.86 kcal/mol

Please give the documented folding stability dG unfold of FRFTIPLPDGKKIIIDYRPMPDGNYMFDVKLQLPNGKERTIPIMVPREEFPGMPMEEMAETMVKEALKKLKS [r1_92_TrROS] 3.3 kcal/mol

----------
# assayComment: folding stability dG unfold (combined trypsin and chymotrypsin); higher = more stable
Outcome: T for folding stability dG unfold of at least 1 kcal/mol; F for anything lower.

Does the reported folding stability dG unfold for SAGGGKLFVTEDAVLLELLYPETGEPYLAVFNPPTGLVTVYFPNRLKALFKIDPDGNLTLVKIEPANSAGGS [r16_127_TrMRF] fall at or above the 1 kcal/mol mark? T

Hello, I need to know if SAGGSAGGSAGGERVVRFPYTGTLEDVLEAARRLRRLGGVEVGYDPENGVLLARFKGGGLSAGGSAGGSAGG [r7_219_TrMRF] has measured folding stability dG unfold not below 1 kcal/mol. Thanks! T

Confirm if folding stability dG unfold reported for the sequence SAGGSAGGSKITSIEEKDGFVRITIEVDGKTETKTIPKENLPPNITFPPGAKVKIEKVSKEDLSAGGSAGGS [r12_1005_TrROS_Hall] is 1 kcal/mol or above. T

Quick check: does SAGGSPTREVVLPTKDPTADKAFYTVRITLTEPPSNSTAVTVTFLDLPPDVEPSPELVAAVEAALSSAGGSA [r2_7_JUSTAS] have folding stability dG unfold greater than or equal to 1 kcal/mol? F

Hello, I need to know if SAGGSAGGSAGGMNIKVLKEFEFETEDGVPVRYLLVDAGGEEGETVVIKETPTSIEIIPFSAGGSAGGSAGG [r7_960_TrMRF] has measured folding stability dG unfold not below 1 kcal/mol. Thanks! F

Check if folding stability dG unfold >= 1 kcal/mol (inclusive). Item: SAKKYIIRVKVKINGKEYEIEIEADSLEEALAKLKEELKKLFPGEKIEEVKIEVYDAKTGEKKEITLKLSAG [r14_54_TrROS_Hall] T

Reported folding stability dG unfold at or above 1 kcal/mol? SAGGSAGGSAGGGMVIVTREPENLTFTVYREDPSTGKLRRIGTFPVSPDELEKVLALLSSAGGSAGGSAGGS [r10_275_JUSTAS] T

----------
# assayComment: folding stability dG unfold from chymotrypsin proteolysis; higher = more stable
readoutKind: folding stability dG unfold (kcal/mol)
Please reply with the bare figure in kcal/mol and do not write the unit itself.

Give the reported folding stability dG unfold for this sequence. SAGGSAGGSAGDTSVEYEVSVTVEVFPLPDYALVKVTLEVDYPDGSKEKVEYVFLVSPYEGSAGGSAGGSAG [r3_330_TrMRF] 3.35

Consider the sequence SAGGMPPEELEAASLEERIARVRAAGLETATVRRPDGSTLTIDLGEEGPVTITTTTPPGETTTATLPSAGGS [r8_51_JUSTAS] . State its measured folding stability dG unfold. 0.975

Input SSMTTTEKKYTYNDSSISVSTTTLPDGSKLITTPITRKNPDGIDVTETLTTLDKGSGVTPVSPSTSTLNTSA [r9_554_JUSTAS] , output reported folding stability dG unfold. 0.602

Consider the sequence SAGGSAGGSAGGSWKIDKFTSIERTDGGYVIRIRMENPDGPPMKQTFYFPPGDDELANISAGGSAGGSAGGS [r4_253_TrROS] and give its recorded folding stability dG unfold. 0.242

Report folding stability dG unfold for SAGGSAMVETKTFEFEFEFEFENPDGEPATVTVPVTVEVPVLVPVAAPGPPGANGPEKELEELEKESAGGSA [r15_728_TrMRF] 0.641

Please indicate folding stability dG unfold recorded for SAGPYYVRITVSIYYPGNGAPHQHTIPIKGKTLDDIKDEIRDEIRDHGMKMDPGDEVEIQITDIEVYPGSAG [r5_230_TrROS] 1.55

Return folding stability dG unfold for the following sequence: SAGGSPDIKFNEVKVELPTAETEAEFEKNTYKVEVPAPPELDITTTTTLTTSSGSTTTTTSTSPLELPSAGG [r13_191_JUSTAS] -1.11

----------
# assayComment: folding stability dG unfold from trypsin proteolysis; higher = more stable
Would you kindly list folding stability dG unfold for each of these sequences?
Kindly format the answer as number then unit.

Output measured folding stability dG unfold for this item: SAGGSAGGSAIWIPSPEAADEIMDILAKKNGYKINIEPIGQDEDGGMVYEIEIVPPGQPLTSAGGSAGGSAG [r3_59_TrROS] 0.152 kcal/mol

For the sequence SAGMSLVPLEELARAWAEERGLPVLDVEVPESRSPATRHVTITLTLRDPATGALTTETRELVIPEEELGSAG [r5_421_JUSTAS] , give its measured folding stability dG unfold value. 0.585 kcal/mol

In one line, give reported folding stability dG unfold of the entry SAGGSATAEELADEIANYMADRHGMEVKKIEITDVDNDRVVFRAEVEMPNPNGKKHTHPFTIEIPVSAGGSA [r15_276_TrROS] . -0.0958 kcal/mol

Identify measured folding stability dG unfold corresponding to SMATVLSVSENPENPDTLSFEVELPDSPMSVTVPKDPKTGKYTMTVETPEATTTRDFTSLEDALAYIERASA [r9_366_JUSTAS] 0.787 kcal/mol

Return value of folding stability dG unfold for input SAGGSAGGSEEKTVLARIKITFPDGEKREIEVEMTLDELKKLLEELGLSEEEVKIEVELVPLPSAGGSAGGS [r20_154_TrROS_Hall] , no commentary. 3.99 kcal/mol

Identify the reported folding stability dG unfold for the following entry. SAGSPATLRAQAEEEARALAAELGAEVTVDVTVEPVPGEYVVRTTATLTFPGGEVRTLPRTTRVPRSLVSAG [r5_609_JUSTAS] 0.671 kcal/mol

Supply recorded folding stability dG unfold for SAGGSAGGSAGGKIKLTVTVDADGNATVTLEIEVESPEDKPFTIRLTLTFPLKDGESLTSAGGSAGGSAGGS [r10_763_TrMRF] here. 3.9 kcal/mol

----------
# assayComment: folding stability dG unfold (combined trypsin and chymotrypsin); higher = more stable
readoutKind: folding stability dG unfold (kcal/mol)
Only the number, expressed in kcal/mol, is required.

Input SAGGSAGGSAGGKVEEVEKLAEELEKELGVDIGEVEVLDHPDKFRYRIRIPDLDLDLEFSAGGSAGGSAGGS [r10_161_TrMRF] , output reported folding stability dG unfold. -0.103

Provide measured folding stability dG unfold value, entry: SAGGSAGGSDPDLDIPPAPLEEIYIPGTGRLLVLYEPTGLVAAYPPSGSFEIGVYDPETGKISSAGGSAGGS [r12_420_TrMRF] -0.297

Determine from records and report folding stability dG unfold for SAGGSAGGSLMIPIPPGKPINIKFEIKNDDGHPMRITETYPVKNGYYVIRVENPNGNEQIIPFSAGGSAGGS [r12_31_TrROS] -0.185

Please report the measured folding stability dG unfold for SAGGSAGGSAGGKIKPGQTVIFIELKITKQRDGPDGKRYMEFEIERIDIFRIPPGDNILSAGGSAGGSAGGS [r10_826_TrROS] 3.03

Kindly indicate its recorded folding stability dG unfold. Item: SAGGSEVETVKVKIKVKIDGKVYEVEAEVEVFTDEDGRKVLRITLPDGRVVEIPLEDADKIEEIEVSAGGSA [r2_297_TrROS_Hall] 4.25

Provide one value: measured folding stability dG unfold of SAGGMTTLTLETTDEGKPLGLEEILARLREALPGVPVEVLSADPAKGVVTIAVAPEAVPEIERAVAASAGGS [r8_235_JUSTAS] 1.96

Return folding stability dG unfold for the following sequence: SAGGSAGGSPRIVRVEVDPPPGGLGLARIEVEVVDPSTGVPRLERRTVPVPLGDWKKLLDFLGSAGGSAGGS [r12_691_TrMRF] 2.23

Given SAGGSAGGSAGGMTQEVTLEPLPDGTVKLLSVEAPESTVTVPVKLPGGGEEVRTLPPEALSAGGSAGGSAGG [r7_829_JUSTAS] , respond with its folding stability dG unfold. -0.131

For SAGGSAGGSAGGNWVTIWIPFKMTHYRPDPDGKMYPHKHEMPRPITIPPGQATEDALDKISAGGSAGGSAGG [r7_777_TrROS] , write its folding stability dG unfold. 0.595

Could you please provide reported folding stability dG unfold for SAGMLKVKIKIEIEKDGKKIELEKEIEAESEEELLKAAEELAKELEKKGIKIKKIEVEVEKIPEPEEEESAG [r5_660_TrROS_Hall] ? Thanks! 2.5

Tell me measured folding stability dG unfold for SAGGSAGGSAGVIPLPGGEEVEYFPEKGEATVRLPDGTVYKVEITKAPDGSLSVTVTPAGSAGGSAGGSAGG [r11_331_JUSTAS] please. 1.45

Report folding stability dG unfold for SAGGSAGGSAGGMILVQDKKTKKWYEIKPGESLENLEFPEGVKEVRIYVFNEDGELVELDSAGGSAGGSAGG [r7_763_TrROS_Hall] 2.28
